Biological target: Procine Intestinal Nuclear Vitamin D Receptor (Sus scrofa)
Sequence (A3RGC1 1-427): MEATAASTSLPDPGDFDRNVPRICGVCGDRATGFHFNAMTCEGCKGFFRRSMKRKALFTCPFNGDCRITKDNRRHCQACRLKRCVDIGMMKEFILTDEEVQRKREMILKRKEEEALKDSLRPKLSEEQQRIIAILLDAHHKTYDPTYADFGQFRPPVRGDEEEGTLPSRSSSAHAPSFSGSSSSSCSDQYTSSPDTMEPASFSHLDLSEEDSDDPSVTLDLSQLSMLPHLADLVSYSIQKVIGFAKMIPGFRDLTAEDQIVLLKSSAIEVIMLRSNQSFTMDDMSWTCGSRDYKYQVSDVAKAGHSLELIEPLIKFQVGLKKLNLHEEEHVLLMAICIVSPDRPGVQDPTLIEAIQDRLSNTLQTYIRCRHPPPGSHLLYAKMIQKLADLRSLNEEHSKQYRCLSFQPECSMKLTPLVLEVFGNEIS
Assay: biochemical
ENDPOINT_NAME: pEC50
The scale used: pEC50 is minus the common logarithm of the concentration in molar units.

# input compound: C[C@H](CCCC(C)(C)O)[C@H]1CC[C@@H]2/C(=C/C=C3C[C@@H](O)C[C@H](O)C3)CCC[C@@]21C [[27], 14-epi-19-nor-1α,25-dihydroxyvitamin D3] ; wanted: its pEC50 8.35

# input compound: C[C@@H](CCCC(C)(C)O)[C@H]1CC[C@@H]2/C(=C/C=C3C[C@@H](O)C[C@H](O)C3)CCC[C@@]21C [[29]] ; wanted: its pEC50 8.60

----------
molecular target: Procine Intestinal Nuclear Vitamin D Receptor (Sus scrofa); test: biochemical
Please respond with reported pEC50 for every item in the list.
The scale used: pEC50 is minus the common logarithm of the concentration in molar units.

# input molecule: C[C@@H](CCCC(C)(C)O)[C@H]1CC[C@H]2/C(=C/C=C3C[C@@H](O)C[C@H](O)C3)CCC[C@]12C [20-epi-19-nor-1,25(OH)2 D3, reference compound] ; wanted: its pEC50 9.10

# input molecule: CC(C)CCC[C@H](C)[C@H]1CC[C@H]2/C(=C/C=C3C[C@@H](O)C[C@H](O)C3)CCC[C@]12C [20-epi-19-nor-1(OH)D3] ; wanted: its pEC50 6.22

# input molecule: C[C@H](CCCC(C)(C)O)[C@H]1CC[C@H]2/C(=C/C=C3C[C@@H](O)C[C@H](O)C3)CCC[C@]12C [19-nor-1,25(OH)2 D3, 19-nor-1,25-dihydroxyvitamin D3, reference compound] ; wanted: its pEC50 8.38

----------
target: Procine Intestinal Nuclear Vitamin D Receptor (Sus scrofa, UniProt A3RGC1); details: VDR binding, ratio to 1,25(OH)2 D3
ENDPOINT_NAME: Activity vs. 1,25(OH)2 D3
Form: value (number only, do not type unit).

# input compound: CC(C)CCC[C@H](C)[C@H]1CC[C@H]2/C(=C/C=C3C[C@@H](O)C[C@H](O)C3)CCC[C@]12C [20-epi-19-nor-1(OH)D3] ; wanted: its Activity vs. 1,25(OH)2 D3 0.0013

# input compound: C[C@H](CCCC(C)(C)O)[C@H]1CC[C@H]2/C(=C/C=C3C[C@@H](O)C[C@H](O)C3)CCC[C@]12C [19-nor-1,25(OH)2 D3, 19-nor-1,25-dihydroxyvitamin D3, reference compound] ; wanted: its Activity vs. 1,25(OH)2 D3 0.2

# input compound: C[C@@H](CCCC(C)(C)O)[C@H]1CC[C@@H]2/C(=C/C=C3C[C@@H](O)C[C@H](O)C3)CCC[C@@]21C [[29]] ; wanted: its Activity vs. 1,25(OH)2 D3 0.33

Recorded values, source patent US5936105A.
